B1: Max-interacting protein 1, residues 70 to 120; numbered along this chain, P50539 (parent)
chain: STHNELEKNRRAHLRLCLERLKVLIPLGPDCTRHTTLGLLNKAKAHIKKLE

- Variants of: B1
- Assay Procedure: abundance fitness (aPCA) (normalised: wild type 0, dead -1); higher = more abundant; growth selection in yeast, the domain comes from the species named
- Settings: Homo sapiens
Endpoint Name: abundance fitness
I'd appreciate a reply containing only the number, no unit.

STHNELEKNRRAHLRLCLERLKVLQPLGPDCTRHTTLGLLNKAKAHIKKLE [I25Q]: -0.561
STHNELEKNRRAHLTLCLERLKVLIPLGPDCTRHTTLGLLNKAKAHIKKLE [R15T]: -0.407
STHNELEKNRRAHLRLCLERLKVLIPLGPDCTRHLTLGLLNKAKAHIKKLE [T35L]: -0.017
STHNELEKNRRAHLRLCLERLKVLIPLGPDCTRHTTLGLLNSAKAHIKKLE [K42S]: -0.338
STHNELEKNRRAHLRLCLERLKVLIPLGPDCTRHTTLGLLNKAKAHIKNLE [K49N]: -0.594

Asked: Report measured abundance fitness; entry is STHNELEKNRRAHLRLCLERLKVLIPLGPDCTRHTTLGLLLKAKAHIKKLE [N41L]
Given back: -0.711

Asked: Report measured abundance fitness; entry is STHNELEKNRRAHLRLCLERLKVLIPLGPDCTRHTTLGLLDKAKAHIKKLE [N41D]
Given back: -0.322

Asked: Report measured abundance fitness; entry is STHNELEKNRRGHLRLCLERLKVLIPLGPDCTRHTTLGLLNKAKAHIKKLE [A12G]
Given back: -0.063

Asked: Report measured abundance fitness; entry is STHNELEKNRRAHLRLCLERLKVLIPLGPDCTRHTTLGLLNKGKAHIKKLE [A43G]
Given back: -0.583

Asked: Report measured abundance fitness; entry is STHNELEKNRRAHLRKCLERLKVLIPLGPDCTRHTTLGLLNKAKAHIKKLE [L16K]
Given back: 0.022

Asked: Report measured abundance fitness; entry is STHNELEKNRRAHLRLCLERLKVCIPLGPDCTRHTTLGLLNKAKAHIKKLE [L24C]
Given back: -0.013

Asked: Report measured abundance fitness; entry is STHNPLEKNRRAHLRLCLERLKVLIPLGPDCTRHTTLGLLNKAKAHIKKLE [E5P]
Given back: -0.15

Asked: Report measured abundance fitness; entry is STHNELEKNRRAHLRLCLERLKVLIPLGPDCTRHTTLGLLNKSKAHIKKLE [A43S]
Given back: -0.652

Asked: Report measured abundance fitness; entry is STHNELEKNRRAHLRLCLERHKVLIPLGPDCTRHTTLGLLNKAKAHIKKLE [L21H]
Given back: -0.335

Asked: Report measured abundance fitness; entry is STHNELEKNRRAHLRLCLERVKVLIPLGPDCTRHTTLGLLNKAKAHIKKLE [L21V]
Given back: -0.669

Asked: Report measured abundance fitness; entry is STHNELEKNRRAHLRLCLERLEVLIPLGPDCTRHTTLGLLNKAKAHIKKLE [K22E]
Given back: -0.885

Asked: Report measured abundance fitness; entry is STHNELEKNRTAHLRLCLERLKVLIPLGPDCTRHTTLGLLNKAKAHIKKLE [R11T]
Given back: -0.352

The reported numbers originate from the Human Domainome abundance scans (Beltran et al. 2025).
